- methodSummary: In-vivo radioactivity distribution experiment using normal mice (Example 2)
- statedConditions: normal mice, intravenous, 30 min; Example 2 numbering
readoutName: In-vivo radioactivity distribution: pancreas

Kindly note the recorded In-vivo radioactivity distribution: pancreas for CN(C)c1ccc(C(=O)/C=C/c2ccc(I)cc2)cc1 [Compound 10 in Example 2, 4-iodo-4′-dimethylaminochalcone] , which is 0.85 (0.10) percent of the dose/g

---
Note to self: In-vivo radioactivity distribution: pancreas recorded for CN(C)c1ccc(C=CC(=O)c2ccc(I)s2)cc1 [Compound 14 in Example 2] was 1.95 (0.32) percent of the dose/g

CNc1ccc(C(=O)/C=C/c2ccc(I)cc2)cc1 [Compound 7 in Example 2, 4-iodo-4′-methylaminochalcone] yielded In-vivo radioactivity distribution: pancreas of 1.04 (0.35) percent of the dose/g

According to the records, this compound CNc1ccc(C=CC(=O)c2ccc(I)s2)cc1 [Compound 13 in Example 2] displays In-vivo radioactivity distribution: pancreas of 1.48 (0.34) percent of the dose/g
